test system: LPS from S. typhimurium; test: LPS neutralization assay (Limulus amoebocyte lysate, QCL-1000); format: biochemical, Salmonella typhimurium; details: Table 2; read-out: IC50 values (μM) for LPS binding, Salmonella
Ends that are not written are not given here.
Measured Quantity: IC50 (µM)
The reply should contain only the number, in µM.

Fill in: IC50 of ANIKLSVQMKLFKRHLKWKIIVKLNDGRELSLD [βpep-25, reference compound] is ___
2.5

###

tested on: E. coli J96; assay: Bactericidal assay on J96; type: cell-based; conditions: read-out: Bacterial activity on J96 IC50 (conc)
Measured Quantity: pIC50
Please note pIC50 is a logarithmic value: minus log10 of concentration in mol/L. Answer with that number alone.

Query pIC50 on E. coli J96 for CC(C)(C)c1cc2c(O)c(c1)Cc1cc(C(C)(C)C)cc(c1OCCCCNC(=N)N)Cc1cc(C(C)(C)C)cc(c1OCCCCNC(=N)N)Cc1cc(C(C)(C)C)cc(c1OCCCCNC(=N)N)C2
5.89

Same again, this time with CC(C)(C)c1cc2c(O)c(c1)Cc1cc(C(C)(C)C)cc(c1OCCNC(=N)N)Cc1cc(C(C)(C)C)cc(c1O)Cc1cc(C(C)(C)C)cc(c1OCCN)C2.O=C(O)C(F)(F)F
5.60

Same again, this time with CN(C)CCNC(=O)COc1c2cc(C(C)(C)C)cc1Cc1cc(C(C)(C)C)cc(c1OCC(=O)NCCN(C)C)Cc1cc(C(C)(C)C)cc(c1OCC(=O)NCCN(C)C)Cc1cc(C(C)(C)C)cc(c1OCC(=O)NCCN(C)C)C2 [drawing 10]
5.89

# repeat for CC(C)CCOc1c2cc(CCC(=O)NCCN(C)C)cc1Cc1cc(CCC(=O)NCCN(C)C)cc(c1OCCC(C)C)Cc1cc(CCC(=O)NCCN(C)C)cc(c1OCCC(C)C)Cc1cc(CCC(=O)NCCN(C)C)cc(c1OCCC(C)C)C2
5.92

###

system: LPS from S. typhimurium; test: LPS neutralization assay (Limulus amoebocyte lysate, QCL-1000); assay type: biochemical, Salmonella typhimurium; conditions: Table 2; read-out: IC50 values (μM) for LPS binding, Salmonella
Measured Quantity: IC50 (µM)
Just the number please, in µM, no unit attached.

Item CN(C)CCNC(=O)COc1c2cc(C(C)(C)C)cc1Cc1cc(C(C)(C)C)cc(c1OCC(=O)NCCN(C)C)Cc1cc(C(C)(C)C)cc(c1OCC(=O)NCCN(C)C)Cc1cc(C(C)(C)C)cc(c1OCC(=O)NCCN(C)C)C2 [Compound 3] has what recorded IC50?
4.1

Queued: CC(C)(C)c1cc2c(OCCCCN)c(c1)Cc1cc(C(C)(C)C)cc(c1OCCCCNC(=N)N)Cc1cc(C(C)(C)C)cc(c1OCCCCNC(=N)N)Cc1cc(C(C)(C)C)cc(c1OCCCCNC(=N)N)C2.O=C(O)C(F)(F)F [Compound 43]
0.6

Another compound: NCCNC(=O)COc1c2cccc1Cc1cccc(c1O)Cc1cccc(c1OCC(=O)NCCN)Cc1cccc(c1O)C2 [Compound 20]
1.2

Now give it for CC(C)(C)c1cc2c(OCC(=O)NCCN)c(c1)Cc1cc(C(C)(C)C)cc(c1OCC(=O)NCCN)Cc1cc(C(C)(C)C)cc(c1OCC(=O)NCCN)Cc1cc(C(C)(C)C)cc(c1OCC(=O)NCCN)C2 [Compound 4] too.
0.8

###

tested on: LPS from K. pneumoniae; experiment: LPS neutralization assay (Limulus amoebocyte lysate, QCL-1000); format: biochemical, Klebsiella pneumoniae; details: Table 3; errors estimated ±30%; read-out: IC50 values (μM) for LPS binding, Klebsiella
Returns: string. Value is y if measured IC50 is below 0.4 µM, and n if it is greater than or equal to it.

State whether 0.4 µM exceeds IC50 recorded for CC(C)(C)c1cc2c(OCCCCN)c(c1)Cc1cc(C(C)(C)C)cc(c1OCCCCNC(=N)N)Cc1cc(C(C)(C)C)cc(c1OCCCCNC(=N)N)Cc1cc(C(C)(C)C)cc(c1OCCCCNC(=N)N)C2.O=C(O)C(F)(F)F .
n

Try CCCc1cc2c(OCC(=O)NCCN(C)C)c(c1)Cc1cc(CCC)cc(c1OCC(=O)NCCN(C)C)Cc1cc(CCC)cc(c1OCC(=O)NCCN(C)C)Cc1cc(CCC)cc(c1OCC(=O)NCCN(C)C)C2 [Compound 11a] next.
y

Next compound up: CC(C)CCOc1c2cccc1Cc1cc(CCCOS(=O)(=O)O)cc(c1O)Cc1cccc(c1OCCC(C)C)Cc1cc(CCCOS(=O)(=O)O)cc(c1O)C2
n

Please do the same for CC(C)CCOc1c2cccc1Cc1cc(CCCP(=O)(O)O)cc(c1O)Cc1cccc(c1OCCC(C)C)Cc1cc(CCCP(=O)(O)O)cc(c1O)C2 as well.
n

// query: CN(C)CCNC(=O)COc1c2cccc1Cc1cccc(c1OCC(=O)NCCN(C)C)Cc1cccc(c1OCC(=O)NCCN(C)C)Cc1cccc(c1OCC(=O)NCCN(C)C)C2
n

Another compound: CC(C)(C)c1cc2c(OCC(=O)NCCN)c(c1)Cc1cc(C(C)(C)C)cc(c1OCC(=O)NCCN)Cc1cc(C(C)(C)C)cc(c1OCC(=O)NCCN)Cc1cc(C(C)(C)C)cc(c1OCC(=O)NCCN)C2
y

Try this compound too: CN(C)CCNC(=O)COc1c2cc(C(C)(C)C)cc1Cc1cc(C(C)(C)C)cc(c1OCC(=O)NCCN(C)C)Cc1cc(C(C)(C)C)cc(c1OCC(=O)NCCN(C)C)Cc1cc(C(C)(C)C)cc(c1OCC(=O)NCCN(C)C)C2
n

###

tested on: LPS from E. coli serotype 0111:B4; test: LPS neutralization assay (Limulus amoebocyte lysate, QCL-1000); assay type: biochemical; conditions: Table 3; errors estimated ±30%; read-out: IC50 values (μM) for LPS binding, E. coli 0111:B4
Would you mind telling me the reported IC50 of each entry?
Write the answer as a number in µM, unit excluded.

Endpoint output: IC50 of CCCc1cc2c(OCC(=O)NCCN(C)C)c(c1)Cc1cc(CCC)cc(c1OCC(=O)NCCN(C)C)Cc1cc(CCC)cc(c1OCC(=O)NCCN(C)C)Cc1cc(CCC)cc(c1OCC(=O)NCCN(C)C)C2 [Compound 11b] . Value?
2.7

Note, next up: CC(C)(C)c1cc2c(OCC(=O)NCCN)c(c1)Cc1cc(C(C)(C)C)cc(c1OCC(=O)NCCN)Cc1cc(C(C)(C)C)cc(c1OCC(=O)NCCN)Cc1cc(C(C)(C)C)cc(c1OCC(=O)NCCN)C2
1.6

How about CC(C)(C)c1cc2c(OCCCCN)c(c1)Cc1cc(C(C)(C)C)cc(c1OCCCCNC(=N)N)Cc1cc(C(C)(C)C)cc(c1OCCCCNC(=N)N)Cc1cc(C(C)(C)C)cc(c1OCCCCNC(=N)N)C2.O=C(O)C(F)(F)F ?
0.4

Same thing, different molecule: CC(C)CCOc1c2cccc1Cc1cc(CCCOS(=O)(=O)O)cc(c1O)Cc1cccc(c1OCCC(C)C)Cc1cc(CCCOS(=O)(=O)O)cc(c1O)C2
5

###

tested on: E. coli J96; test: Bactericidal assay on J96; format: cell-based; conditions: read-out: Bacterial activity on J96 IC50 (conc)
Measured Quantity: IC50

Item CN(C)CCNC(=O)COc1c2cccc1Cc1cccc(c1OCC(=O)NCCN(C)C)Cc1cccc(c1OCC(=O)NCCN(C)C)Cc1cccc(c1OCC(=O)NCCN(C)C)C2 [drawing 7] has what recorded IC50?
> 3.8 µM

Another: CC(C)(C)c1cc2c(OCC(=O)NCCN)c(c1)Cc1cc(C(C)(C)C)cc(c1OCC(=O)NCCN)Cc1cc(C(C)(C)C)cc(c1OCC(=O)NCCN)Cc1cc(C(C)(C)C)cc(c1OCC(=O)NCCN)C2 [drawing 14]
> 3.8 µM

Also, CC(C)(C)c1cc2c(O)c(c1)Cc1cc(C(C)(C)C)cc(c1OCCNC(=N)N)Cc1cc(C(C)(C)C)cc(c1O)Cc1cc(C(C)(C)C)cc(c1OCCNC(=N)N)C2 please.
> 3.8 µM

###

Field: IC50. Provide a value for each of the compounds that follow.
system: LPS from S. typhimurium; experiment: LPS neutralization assay (Limulus amoebocyte lysate, QCL-1000); type: biochemical, Salmonella typhimurium; conditions: Table 2; read-out: IC50 values (μM) for LPS binding, Salmonella

Look up IC50 for this compound: CN(C)CCNC(=O)COc1c2cccc1Cc1cccc(c1OCC(=O)NCCN(C)C)Cc1cccc(c1OCC(=O)NCCN(C)C)Cc1cccc(c1OCC(=O)NCCN(C)C)C2
> 5 µM

Note, next up: CC(C)CCOc1c2cccc1Cc1cc(CCCP(=O)(O)O)cc(c1O)Cc1cccc(c1OCCC(C)C)Cc1cc(CCCP(=O)(O)O)cc(c1O)C2
> 5 µM

# repeat for CC(C)CCOc1c2cccc1Cc1cc(CCCOS(=O)(=O)O)cc(c1O)Cc1cccc(c1OCCC(C)C)Cc1cc(CCCOS(=O)(=O)O)cc(c1O)C2
> 5 µM
